Source: ChEMBL document CHEMBL1146840

test: Free radical scavenging activity of DPPH relative to resveratrol was determined
Reported Metric: Relative IC50

Below: 3 compounds and their reported Relative IC50.
compound=Oc1ccc(/C=C/c2cc(O)c(I)c(O)c2)cc1 reported_metric="Relative IC50" val=1.75
compound=Oc1cc(O)cc(/C=C/c2ccc(O)c(CCF)c2)c1 reported_metric="Relative IC50" val=2.6
compound=Oc1cc(O)cc(/C=C/c2ccc(O)c(Br)c2)c1 reported_metric="Relative IC50" val=2.41

(P) Oc1cc(O)cc(/C=C/c2ccc(O)c(O)c2)c1
(Q) Oc1cc(O)c2c(c1)O[C@H](c1ccc(O)c(O)c1)[C@H](O)C2 [(-)-EPICATECHIN]
(Q) Which has the smaller recorded Relative IC50, P or Q ? # respond with the chosen item's label
(A) P
